test.name: accelerated stability test (sealed vial, 30° C., HPLC content and related substances)
Format: physicochemical
condition.label: month 1

| compound | Form |
| --- | --- |
| CC[C@H]1OC(=O)[C@H](C)[C@@H](O[C@H]2C[C@@](C)(OC)[C@@H](O)[C@H](C)O2)[C@H](C)[C@@H](O[C@@H]2O[C@H](C)C[C@H](N(C)C)[C@H]2O)[C@](C)(O)C[C@@H](C)C(=O)[C@H](C)[C@@H](O)[C@]1(C)O [erythromycin lactobionate trihydrate] | off-white powder |
| CC[C@H]1OC(=O)[C@H](C)[C@@H](O[C@H]2C[C@@](C)(OC)[C@@H](O)[C@H](C)O2)[C@H](C)[C@@H](O[C@@H]2O[C@H](C)C[C@H](N(C)C)[C@H]2O)[C@](C)(O)C[C@@H](C)C(=O)[C@H](C)[C@@H](O)[C@]1(C)O.O.O.O.O.O.O.O=C(O)[C@H](O)[C@@H](O)[C@H](O[C@@H]1O[C@H](CO)[C@H](O)[C@H](O)[C@H]1O)[C@H](O)CO [erythromycin lactobionate hexahydrate] | off-white powder |
